Just for reference, PubChem BioAssay (NCI) is where these values come from.

Test system: MDA-MB-435
ASSAY_METHOD_TEXT: NCI tumour cell line growth inhibition, 48 h
ASSAY_METRIC: TGI (µM)

>>> print(df.to_string())
                        structure_as_smiles  censoring_operator  result_value
0  CN(C)CCN1C(=O)N(CCN(C)C)c2c3cc(O)ccc3nc3c([N+](=O)[O-])ccc1c23                   =          32.9
1     NCCn1c2c(c3ccccc3c1=O)C(=O)c1ccccc1-2                   =          2.51
2  COc1ccc(CNC(=O)c2ccc(-c3cc(-c4nnc(C)o4)ccc3C)cc2)cc1                   >            25
3  N#Cc1c(-c2ccc(Cl)cc2)csc1NC(=O)Nc1cccc(C(F)(F)F)c1                   =          10.3
4  CCc1ccc(OCc2ccccc2C(=O)Nc2ccc3nc(C)cc(N)c3c2)cc1                   =          2.77

====

System: ACHN renal
ASSAY_METHOD_TEXT: NCI tumour cell line growth inhibition, 48 h
The following molecules are shown together with reported TGI values.
ASSAY_METRIC: TGI

In [3]: df
Out[3]:
                                   molecule  result_value
0  CC(=O)[O-].O=[N+]([O-])c1ccc([O-])c(C=NCCN=Cc2cc([N+](=O)[O-])ccc2[O-])c1.[Mn+3]      > 100 µM
1  Brc1ccc(/C(N=N/C(=N\Sc2ccccc2)c2ccc(Br)cc2)=N/Sc2ccccc2)cc1      > 100 µM
2  O=C(O)C(O)c1ccc(F)cc1 (stereo not given)      > 100 µM
3  CC(=O)Oc1ccc2c(c1)O/C(=C\c1ccc(O)cc1)C2=O      > 100 µM
4  Cc1ccc(S(=O)c2ccc([N+](=O)[O-])c3nonc23)cc1 (stereo not given)       3.75 µM
5                 CCOC(=O)/N=c1\ssc(Cl)c1Cl       4.37 µM
6                 Nc1cc2nc(-c3ccccc3)cn2cn1      > 100 µM
7  COc1cc2c(c(OC)c1OC)-c1ccc(SC)c(=O)cc1[C@@H](NC(=O)c1ccc(F)cc1)CC2       91.3 µM
8  Cc1nn(C(=O)c2ccccc2O)c2c1C(c1ccc([N+](=O)[O-])cc1)SC(N)=N2 (stereo not given)     > 8.37 µM
9  Fc1ccc(OCc2ccc3nc(-c4ccccc4)c(Cl)nc3c2)cc1       71.7 µM

====

The following molecules are shown together with reported TGI values.
Test system: DLD-1 colon
ASSAY_METHOD_TEXT: NCI tumour cell line growth inhibition, 48 h
ASSAY_METRIC: TGI

>>> df
                                   molecule  assay_metric  result_value
0  C=C1C(=O)C23CC1CCC2C12CO[C@@]3(O)[C@@H](O)C1C(C)(C)C=CC2=O (stereo partly drawn)           TGI       2.22 µM
1  O=C(NOC(=O)c1ccc([N+](=O)[O-])cc1)c1ccc(Cl)cc1           TGI      > 100 µM
2  O=c1ccn([C@@H]2C=C(CO)[C@@H](O)[C@H]2O)c(=O)[nH]1           TGI      > 625 µM

====

System: NCI/ADR-RES ovarian
ASSAY_METHOD_TEXT: NCI tumour cell line growth inhibition, 48 h; in the data active = GI50 below about 0.43 µM; inactive = the rest
Labels: active, inactive

                                    compound  class_assignment
 0  Fc1ccc(-c2cc(-c3cn[nH]c3-c3ccccn3)ccn2)cc1          inactive
 1             COc1ccc(-c2conc2-c2ccccc2)cc1            active
 2  COc1ccc2c(c1)c(-c1cc(-c3cn(C)c4ccc(OC)cc34)[nH]n1)cn2C          inactive
 3     NCCn1c2c(c3ccccc3c1=O)C(=O)c1ccccc1-2          inactive
 4                 CCOC(=O)/N=c1\ssc(Cl)c1Cl          inactive
 5  Cc1cc(S(N)(=O)=O)c(S/C(=N\NS(=O)(=O)c2ccccc2)c2ccc(Cl)c(Cl)c2)cc1Cl          inactive
 6  Cc1nc2cc(Nc3nc(Nc4ccc(F)cc4)nc(-c4ccc(Cl)cc4)n3)ccc2n1Cc1ccccc1          inactive
 7  CCCCCCCCCCCCCCCCCCNC(=O)[C@H]1CSC(c2ccc(F)c(OC)c2)N1 (stereo partly specified)          inactive
 8  CC(C)c1ccc2c(c1)c(SC(C)(C)C)c(CC(C)(C)C(=O)O)n2Cc1ccc(Cl)cc1          inactive
 9  C/C(=N\O)[C@H]1CC[C@@]2(C)[C@@H]3CC[C@H]4C(C)(C)/C(=N/O)CC[C@@]45CC35CC[C@]12C (stereo partly specified)          inactive
10             CNc1ccc(N=Nc2cccc3ncccc23)cc1          inactive
11  CCCC(=O)Nc1cn(COC)c(C(=O)N2C[C@H]3C[C@@]34C2=CC(=O)c2[nH]cc(C)c24)n1          inactive
12  O=C1c2cc3c(cc2-c2c1c1cc(F)c(F)cc1c(=O)n2C[C@H](O)CO)OCO3            active
13  NCCNc1nc2ccccc2c2c(=O)c3cc(F)cc(Cl)c3sc12          inactive
14  CCOc1cccc(/C=N/NC(=O)Cc2ccc(Nc3ccnc(C(F)(F)F)c3)cc2)c1O          inactive
15  CCCCCCCCCCCCNC(=O)[C@H]1CSC(c2ccsc2)N1 (stereo partly specified)          inactive

====

System: KM20L2 colon
ASSAY_METHOD_TEXT: NCI tumour cell line growth inhibition, 48 h
ASSAY_METRIC: TGI

>>> df
                                   compound  result_value
0  O=C1OC(c2ccc(Cl)c3ccccc23)c2ccccc21 (stereo not given)      > 100 µM
1  COc1cc2c3c(c1OC)/C(=N/OS(=O)(=O)c1ccc(C)cc1)CC3N(S(=O)(=O)c1ccc(C)cc1)CC2 (stereo not given)      > 100 µM
2  O=c1ccn([C@@H]2C=C(CO)[C@@H](O)[C@H]2O)c(=O)[nH]1      > 625 µM
3  CCC1(Cl)C(=O)NC(=O)N(C2CC(O)C(CO)O2)C1N=[N+]=[N-] (stereo not given)      > 100 µM
4  O=C(O)C(CS)N=Cc1nc(-c2ccccc2)oc1O (stereo not given)      > 100 µM

====

Test system: PC-3 prostate
ASSAY_METHOD_TEXT: NCI tumour cell line growth inhibition, 48 h

COMPOUND	TESTED_SYSTEM	CENSORING_OPERATOR	TGI (µM)
NCCNc1nc2ccccc2c2c(=O)c3cc(F)cc(Cl)c3sc12	PC-3 prostate	=	2.9
COc1ccc2c(c1)-c1nc(=S)n(CCN(C)C)c3ccc([N+](=O)[O-])c(c13)N2	PC-3 prostate	=	4.36
COc1ccccc1-c1nccc(COc2ccccc2C[C@@H](Oc2ncnc3sc(-c4ccc(F)cc4)c(-c4ccc(OCCN5CCN(C)CC5)c(Cl)c4C)c23)C(=O)O)n1	PC-3 prostate	=	4.81
CC1CCc2sc3[nH]c(=S)n(C)c(=O)c3c2C1 (stereo unspecified)	PC-3 prostate	=	72
O=C1C=CC(=O)c2c(O)c(N3CCN(c4ncccn4)CC3)c(Cl)c(O)c21	PC-3 prostate	=	8.88
C[N+]1(CCCCN2c3ccccc3Sc3cc(N=[N+]=[N-])ccc32)CCN(C(=O)CCNC(=O)Cc2ccc(C(=O)c3ccccc3)cc2)CC1	PC-3 prostate	=	40.7
CCOC(=O)c1c(-c2ccc(OC)cc2)c(C#N)c(=S)n(C2OC(CO)C(O)C(O)C2O)c1C (stereo unspecified)	PC-3 prostate	>	100
C#CCn1cc(C=C2C(=O)NC(=S)NC2=O)c2cc(Cl)ccc21	PC-3 prostate	=	6.89
COc1ccc(CNC(=O)c2ccc(-c3cc(-c4nnc(C)o4)ccc3C)cc2)cc1	PC-3 prostate	>	25
CCOC(=O)C(=Cc1c(-c2ccccc2)[nH]c2ccccc12)C(=O)OCC	PC-3 prostate	=	14.3
CC(=O)N=S(NC(=O)c1ccc(C)cc1)C(Cl)(Cl)Cl (stereo unspecified)	PC-3 prostate	>	100
C=C1C[C@@H]2CC[C@@]34CC5O[C@H]6C(O[C@H]7CC[C@H](CC(=O)O[C@@H]8[C@@H](C)[C@@H]9O[C@@H]%10C[C@]%11(C[C@@H]%12O[C@]%13(C[C@H](C)[C@@H]%14O[C@@H]%15CC(C(COC(C)=O)OC(C)=O)O[C@@H]%15C[C@@H]%14O%13)C[C@H](C)[C@@H]%12O%11)O[C@@H]%10C[C@@H]9O[C@H]8CC8O[C@@H](CC[C@@H]1O2)C[C@@H](C)C8(O)CO)O[C@@H]7[C@@H]6O3)[C@H]5O4 (stereo partly specified)	PC-3 prostate	>	1
COC(=O)Cc1c2n(c3ccccc13)C(=O)N1c3ccccc3C(CC(=O)OC)C21 (stereo unspecified)	PC-3 prostate	>	100
CC(C)(C)C#CI1OC(=O)c2ccccc21	PC-3 prostate	=	19.5
C=C[C@@]1(C)CC(=O)[C@]2(O)[C@@]3(C)[C@@H](O)CCC(C)(C)[C@@H]3[C@H](O)[C@@H](OC(C)=O)[C@@]2(C)O1	PC-3 prostate	>	100
COc1ccc(C2NC(=S)NC3=C2COc2ccc(F)cc23)cc1OC (stereo unspecified)	PC-3 prostate	=	87.9
O=C(O)C(O)c1ccc(F)cc1 (stereo unspecified)	PC-3 prostate	>	100
O=c1[nH]nc(-c2ccc([N+](=O)[O-])cc2)[nH]1	PC-3 prostate	>	100
N#CC1=C(N)Oc2c(sc3c(Br)cccc23)C1c1ccc(F)cc1 (stereo unspecified)	PC-3 prostate	=	18.1
Cn1c(=O)c2[nH]c(Nc3cccc(Cl)c3)nc2n(C)c1=O	PC-3 prostate	>	10
CC(=O)OC1COC(N2c3ccccc3[C@@H]3CCc4c([nH]c5ccccc45)[C@@H]32)C(OC(C)=O)C1OC(C)=O (mixture of isomers)	PC-3 prostate	>	100
CCOC(=O)/N=c1\ssc(Cl)c1Cl	PC-3 prostate	=	36
CCCCCc1cc(CCCC)sc1-c1ccco1	PC-3 prostate	>	100
CC1=[N+]([O-])C2(CCCC2)N(O)C1(C)C	PC-3 prostate	>	100
Brc1ccc(/C(N=N/C(=N\Sc2ccccc2)c2ccc(Br)cc2)=N/Sc2ccccc2)cc1	PC-3 prostate	>	100
O=c1n(CCCN2CCOCC2)nc2n1-c1ccc3ccccc3c1SC2	PC-3 prostate	>	100
O=C1CCCC2=C1CC1=C(CCCC1=O)N2c1ccc(-c2ccccc2)cc1	PC-3 prostate	>	100
CN1CCN(CCCOc2ccc3ncnc(Nc4ccc(Oc5cccc(F)c5)c(Cl)c4)c3c2)CC1	PC-3 prostate	=	3.45
O=C1c2cccnc2C(=O)c2c1nc1ccccc1c2-c1ccc2c3c(nc4ccccc42)C(=O)c2cccnc2-c13	PC-3 prostate	=	37.2
COc1ccc(-c2nn(-c3cccc(Cl)c3)cc2/C=C2\C(=N)N(c3ccccc3)N=C2N)cc1	PC-3 prostate	>	59
N=C(N)SCC(=O)O	PC-3 prostate	>	100
C[C@@H](CCO)OC1OC(COC(=O)C(C)(C)C)C(OC(=O)C(C)(C)C)C(OC(=O)C(C)(C)C)C1OC(=O)C(C)(C)C (stereo partly specified)	PC-3 prostate	>	100
COc1cccc(Nc2nc3c([nH]2)c(=O)n(C)c(=O)n3C)c1	PC-3 prostate	>	10
Cc1ccc(S(=O)c2ccc([N+](=O)[O-])c3nonc23)cc1 (stereo unspecified)	PC-3 prostate	=	27.1
Cc1cc(S(N)(=O)=O)c(S/C(=N\NS(=O)(=O)c2ccccc2)c2ccc(Cl)c(Cl)c2)cc1Cl	PC-3 prostate	>	100
Cc1cc(C(=O)Nc2cc(Nc3ncccc3-c3ncnc4nc[nH]c34)ccc2F)cc(C(C)(C)C#N)c1	PC-3 prostate	>	100
